Tested on: M. tuberculosis ATCC 25618 (H37Rv)
Assay: Susceptibility testing (agar dilution MIC)
Type: cell-based
Settings: Mycobacterium tuberculosis, 336 h
readout: MIC (µg/mL)

INSERT INTO results (recordsmiles, readout, datavalue) VALUES
  ('NNC(=O)c1ccncc1', 'MIC', 0.1),
  ('CC[C@@H](CO)NCCN[C@@H](CC)CO', 'MIC', 1.56),
  ('O=[N+]([O-])c1cn2c(n1)OC[C@@H](OCc1ccc(OC(F)(F)F)cc1)C2', 'MIC', 0.2),
  ('CN[C@@H]1[C@H](O[C@H]2[C@H](O[C@H]3[C@H](O)[C@@H](O)[C@H](N=C(N)N)[C@@H](O)[C@@H]3N=C(N)N)O[C@@H](C)[C@]2(O)C=O)O[C@@H](CO)[C@H](O)[C@H]1O', 'MIC', 1.56);

----------
Assay: Plasma levels in an experimental mouse model of TB
Details: in vivo, po
readout: concentration at 0.083 h (ng/mL)

INSERT INTO assay_data (molecule, unitinfo, datavalue) VALUES
  ('CC[C@@H](CO)NCCN[C@@H](CC)CO', 'ng/mL', 55),
  ('NC(=O)c1cnccn1 [PZA, pyrazinamide]', 'ng/mL', 49600),
  ('NNC(=O)c1ccncc1', 'ng/mL', 2170);

----------
Experiment: Plasma levels in an experimental mouse model of TB
Details: in vivo, po, 2.5 mg/kg
readout: Tmax (h)

INSERT INTO results (recordsmiles, readout, unitinfo, datavalue) VALUES
  ('C[C@]1(COc2ccc(N3CCC(Oc4ccc(OC(F)(F)F)cc4)CC3)cc2)Cn2cc([N+](=O)[O-])nc2O1', 'Tmax', 'h', 6);

----------
System: M. tuberculosis ATCC 35822 (H37Rv-H-R)
Assay: microbe, parasite or virus in culture
Format: cell-based
Conditions: Mycobacterium tuberculosis, 336 h
# label = Met if MIC < 0.4 µg/mL else Not met

INSERT INTO results (compound, classification) VALUES
  ('CN[C@@H]1[C@H](O[C@H]2[C@H](O[C@H]3[C@H](O)[C@@H](O)[C@H](N=C(N)N)[C@@H](O)[C@@H]3N=C(N)N)O[C@@H](C)[C@]2(O)C=O)O[C@@H](CO)[C@H](O)[C@H]1O [SM, streptomycin]', 'Not met'),
  ('NNC(=O)c1ccncc1 [INH, isoniazid]', 'Not met'),
  ('O=[N+]([O-])c1cn2c(n1)OC[C@@H](OCc1ccc(OC(F)(F)F)cc1)C2 [PA-824]', 'Met'),
  ('C[C@]1(COc2ccc(N3CCC(Oc4ccc(OC(F)(F)F)cc4)CC3)cc2)Cn2cc([N+](=O)[O-])nc2O1 [OPC-67683]', 'Met'),
  ('CCC1Cn2cc([N+](=O)[O-])nc2O1 (stereo not shown) [CGI-17341]', 'Met'),
  ('CC[C@@H](CO)NCCN[C@@H](CC)CO [EB, ethambutol]', 'Not met');

----------
Assay: Plasma levels in an experimental mouse model of TB
Conditions: in vivo, po, 10 mg/kg
readout: AUC(0-t)

INSERT INTO measurements (recordsmiles, readout, datavalue) VALUES
  ('NNC(=O)c1ccncc1', 'AUC(0-t)', '4550 ng·h/mL');
